# System: S. aureus GC 1131
# EXPERIMENTAL_DETAILS: In vitro MIC, broth dilution
# Assay type: cell-based
# ASSAY_SETUP: Staphylococcus aureus, GC1131; S. aureus GC 1131; read-out: MIC
Listed here: items and their measured MIC.

| COMPOUND | MIC |
| --- | --- |
| CC(C)C[C@H](NC(=O)OCc1ccccc1)C(=O)NCCCN[C@H](C(=O)OC(C)(C)C)[C@@H](O)C1O[C@@H](n2ccc(=O)[nH]c2=O)[C@H](O[Si](C)(C)C(C)(C)C)[C@@H]1O[Si](C)(C)C(C)(C)C (stereo partly drawn) | > 128 µg/mL |

Notebook: CCOC(=O)C(NCCCNC(=O)[C@H](CC(C)C)NC(=O)OCc1ccccc1)C(OC(C)=O)[C@H]1O[C@H](n2ccc(=O)[nH]c2=O)[C@H](OC(C)=O)[C@@H]1OC(C)=O (stereo partly drawn) [Example 38a] , MIC read as > 128 µg/mL

Notebook: COc1ccc(Cn2c(=O)ccn([C@@H]3OC([C@H](O)[C@H](NCCCNC(=O)[C@@H](N)[C@H](C)O)C(=O)OC(C)(C)C)[C@@H](O)[C@H]3O)c2=O)cc1 (stereo partly drawn) , MIC read as > 128 µg/mL

----------
# System: E. faecalis GC 842
# EXPERIMENTAL_DETAILS: In vitro MIC, broth dilution
# Type: cell-based
# ASSAY_SETUP: Enterococcus faecalis, GC842; E. faecalis GC 842; read-out: MIC
Listed here: items and their measured MIC.

| MOLECULE | SYSTEM | MIC |
| --- | --- | --- |
| COc1ccc(Cn2c(=O)ccn([C@@H]3OC([C@H](O)[C@H](NCCCNC(=O)[C@H](C)NC(=O)OCc4ccccc4)C(=O)OC(C)(C)C)[C@@H](O[Si](C)(C)C(C)(C)C)[C@H]3O[Si](C)(C)C(C)(C)C)c2=O)cc1 (stereo partly drawn) [Example 14] | E. faecalis GC 842 | > 128 µg/mL |

Notebook: CCOC(=O)C(NCCCNC(=O)[C@H](CC(C)C)NC(=O)[C@H](CCCNC(=N)N[N+](=O)O)NC(=O)N[C@H](C(=O)OCc1ccccc1)C(C)C)C(OC(C)=O)[C@H]1O[C@H](n2ccc(=O)[nH]c2=O)[C@H](OC(C)=O)[C@@H]1OC(C)=O (stereo partly drawn) [Example 41] , MIC read as > 128 µg/mL

Notebook: CCOC(=O)C(NCCCNC(=O)[C@@H](N)[C@H](C)O)[C@@H](O)[C@H]1O[C@@H](n2ccc(=O)[nH]c2=O)[C@H](OC(C)=O)[C@@H]1OC(C)=O (stereo partly drawn) [Example 33] , MIC read as > 128 µg/mL

----------
Listed here: items and their measured MIC.
# System: S. aureus GC 1131
# EXPERIMENTAL_DETAILS: In vitro MIC, broth dilution
# Assay type: cell-based
# ASSAY_SETUP: Staphylococcus aureus, GC1131; S. aureus GC 1131; read-out: MIC

// known answers, use as guide
| MOLECULE | MIC |
| --- | --- |
| CCOC(=O)C(NCCCNC(=O)[C@@H](NC(=O)[C@H](CCCNC(=N)N[N+](=O)O)NC(=O)N[C@H](C(=O)OCc1ccccc1)C(C)C)[C@@H](O)C(C)C)C(O)[C@H]1O[C@@H](n2ccc(=O)[nH]c2=O)[C@H](OC(C)=O)[C@@H]1OC(C)=O (stereo partly drawn) | > 128 µg/mL |
| COc1ccc(Cn2c(=O)ccn([C@@H]3OC([C@H](O)[C@H](NCCCNC(=O)[C@@H](N)CC(C)C)C(=O)OC(C)(C)C)[C@@H](O)[C@H]3O)c2=O)cc1 (stereo partly drawn) | > 128 µg/mL |

Next molecule, please.
Notebook: CCOC(=O)C(NCCCNC(=O)[C@H](CC(C)C)NC(=O)[C@H](CCCNC(=N)N[N+](=O)O)NC(=O)N[C@H](C(=O)OCc1ccccc1)C(C)C)C(OC(C)=O)[C@H]1O[C@H](n2ccc(=O)[nH]c2=O)[C@H](OC(C)=O)[C@@H]1OC(C)=O (stereo partly drawn) , MIC read as > 128 µg/mL

These entries and their values trace back to patent US6858591B2.
